- protocol-text: Mean residence time (0 to t) in Sprague-Dawley rat at 2 mg/kg, po measured during 2 mins to 24 hrs period post dose by LC/MS/MS method
- Type: ADME, organism-based
- Set-up: dose 2 mg/kg, route oral
- measurement-context: in vivo
endpoint-label: MRT last

- compound-structure-string: "Cn1cc(-c2cccc(-n3ccc4cc(C5CC5)cc(F)c4c3=O)c2CO)cc(Nc2ccc(N3CCN(C4COC4)CC3)cn2)c1=O"
  endpoint-label: "MRT last"
  reported-value: "8.78 h"

# input for lookup
Incoming: So what's the measured MRT last for this one? CN1CCN(c2ccc(Nc3cc(-c4cccc(-n5ccc6cc(C7CC7)cc(F)c6c5=O)c4CO)cn(C)c3=O)nc2)CC1
Outgoing: 9.31 h

====

- protocol-text: AUC in Sprague-Dawley rat at 2 mg/kg, po measured during 2 mins to 24 hrs period post dose by LC/MS/MS method
- Assay type: ADME, organism-based
- Design: time upper 24 hr, time lower 0.033 hr, dose 2 mg/kg, route oral
- measurement-context: plasma
Would you kindly list AUC for each of these compounds?
Answers are plain numbers, in ng·h/mL.

- compound-structure-string: "CN1CCN(c2ccc(Nc3cc(-c4cccc(-n5ccc6cc(C7CC7)cc(F)c6c5=O)c4CO)cn(C)c3=O)nc2)CC1"
  endpoint-label: "AUC"
  unit: "ng·h/mL"
  reported-value: 403

Incoming: So what's the measured AUC for this one? Cn1cc(-c2cccc(-n3ccc4cc(C5CC5)cc(F)c4c3=O)c2CO)cc(Nc2ccc(N3CCN(C4COC4)CC3)cn2)c1=O
Outgoing: 1950

====

Would you kindly list CL/F for each of these compounds?
- protocol-text: Clearance in Sprague-Dawley rat at 2 mg/kg, po measured during 2 mins to 24 hrs period post dose by LC/MS/MS method
- Type: ADME, organism-based
- Parameters: dose 2 mg/kg, route oral
- measurement-context: in vivo
Answers are plain numbers, in mL/min/kg.

- compound-structure-string: "Cn1cc(-c2cccc(-n3ccc4cc(C5CC5)cc(F)c4c3=O)c2CO)cc(Nc2ccc(N3CCN(C4COC4)CC3)cn2)c1=O"
  CL/F, mL/min/kg: 13.5

# input for lookup
Incoming: So what's the measured CL/F for this one? CN1CCN(c2ccc(Nc3cc(-c4cccc(-n5ccc6cc(C7CC7)cc(F)c6c5=O)c4CO)cn(C)c3=O)nc2)CC1
Outgoing: 84.5

====

Would you kindly list IC50 for each of these compounds?
- experimental-system: Tyrosine-protein kinase BTK (Homo sapiens, UniProt Q06187)
- Sequence (Q06187 whole entry): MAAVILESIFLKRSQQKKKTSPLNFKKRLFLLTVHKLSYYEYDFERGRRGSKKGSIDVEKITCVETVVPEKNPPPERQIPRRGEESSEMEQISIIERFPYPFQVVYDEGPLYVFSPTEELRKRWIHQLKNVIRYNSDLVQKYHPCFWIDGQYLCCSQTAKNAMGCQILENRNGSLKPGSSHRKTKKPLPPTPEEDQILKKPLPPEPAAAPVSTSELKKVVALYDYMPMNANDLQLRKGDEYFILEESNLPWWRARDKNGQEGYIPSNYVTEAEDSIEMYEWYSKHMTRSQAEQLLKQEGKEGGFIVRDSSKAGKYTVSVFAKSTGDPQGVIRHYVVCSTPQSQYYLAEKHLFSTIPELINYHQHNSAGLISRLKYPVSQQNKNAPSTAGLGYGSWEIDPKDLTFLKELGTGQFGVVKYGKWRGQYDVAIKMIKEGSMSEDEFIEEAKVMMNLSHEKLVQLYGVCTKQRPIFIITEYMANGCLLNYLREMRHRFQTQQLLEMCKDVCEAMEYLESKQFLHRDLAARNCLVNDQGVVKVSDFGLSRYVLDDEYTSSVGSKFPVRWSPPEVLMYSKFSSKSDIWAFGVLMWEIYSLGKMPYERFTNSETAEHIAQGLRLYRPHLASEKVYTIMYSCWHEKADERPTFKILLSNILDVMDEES
- protocol-text: Inhibition of BTK in human Ramos cells assessed as reduction in IgM-induced calcium influx incubated for 20 mins by Fluo-4 dye based fluorescence assay
- Format: cell-based
One number for each entry, in nM.

Worked examples, 10 compounds total:
- compound-structure-string: "CN1CCN(c2ccc(Nc3cc(-c4cccc(-n5ccc6cc(N(C)C)ncc6c5=O)c4CO)cn(C)c3=O)nc2)CC1"
  endpoint-label: "IC50"
  unit: "nM"
  reported-value: 1030
- compound-structure-string: "Cn1cc(-c2cccc(-n3ccc4cc(C5CC5)cc(F)c4c3=O)c2CO)cc(Nc2ccc(C3CCN(C4COC4)CC3)cn2)c1=O"
  endpoint-label: "IC50"
  unit: "nM"
  reported-value: 21
- compound-structure-string: "Cn1cc(-c2cccc(-n3ccc4cc(C5CC5)cc(F)c4c3=O)c2CO)cc(Nc2ccc(N3CCN(C4COC4)CC3)cn2)c1=O"
  endpoint-label: "IC50"
  unit: "nM"
  reported-value: 8
- compound-structure-string: "CN1CCN(c2ccc(Nc3cc(-c4cccc(-n5ccc6cc(C7CC7)ccc6c5=O)c4CO)cn(C)c3=O)nc2)CC1"
  endpoint-label: "IC50"
  unit: "nM"
  reported-value: 115
- compound-structure-string: "CN1CCN(c2ccc(Nc3cc(-c4cccc(-n5ccc6cc(C7CC7)ncc6c5=O)c4CO)cn(C)c3=O)nc2)CC1"
  endpoint-label: "IC50"
  unit: "nM"
  reported-value: 124
- compound-structure-string: "Cn1cc(-c2cccc(-n3ccc4cc(C5CC5)cc(F)c4c3=O)c2CO)cc(Nc2ccc(N3CCN(C(=O)C4CC4)CC3)cn2)c1=O"
  endpoint-label: "IC50"
  unit: "nM"
  reported-value: 4360
- compound-structure-string: "CN1CCN(c2ccc(Nc3cc(-c4cccc(-n5ccc6nc(C7CC7)ccc6c5=O)c4CO)cn(C)c3=O)nc2)CC1"
  endpoint-label: "IC50"
  unit: "nM"
  reported-value: 3250
- compound-structure-string: "CN1CC(N2CCN(c3ccc(Nc4cc(-c5cccc(-n6ccc7cc(C8CC8)cc(F)c7c6=O)c5CO)cn(C)c4=O)nc3)CC2)C1"
  endpoint-label: "IC50"
  unit: "nM"
  reported-value: 33
- compound-structure-string: "Cc1c(-c2cc(Nc3ccc(N4CCN(C5COC5)CC4)cn3)c(=O)n(C)c2)cccc1-n1ccc2cc(C3CC3)cc(F)c2c1=O"
  endpoint-label: "IC50"
  unit: "nM"
  reported-value: 171
- compound-structure-string: "Cc1c(-c2cc(Nc3ccc(N4CCN(C)CC4)cn3)c(=O)n(C)c2)cccc1-n1ccc2cc(C3CC3)cc(F)c2c1=O"
  endpoint-label: "IC50"
  unit: "nM"
  reported-value: 254

# input for lookup
Incoming: So what's the measured IC50 for this one? CN1CCN(c2ccc(Nc3cc(-c4cccc(-n5ccc6cc(C7CC7)cc(F)c6c5=O)c4)cn(C)c3=O)nc2)CC1
Outgoing: 472
